# Test system: EKVX NSCLC
# procedure.summary: NCI tumour cell line growth inhibition, 48 h
Where a SMILES comes first, the peptide text is derived from it. [ ]: non-standard residue; d: D form. The star is where a group is joined. Phe(4-NO2) = N[CH](Cc1ccc([N+](=O)[O-])cc1)C(=O)O; Cbz = O=C(OCc1ccccc1)*
The following compounds are listed with their measured TGI values.
endpoint.label: TGI

>>> measured_value("C=C[C@]1(O)CCC[C@]2(C)C(=O)CCC12C (some centres undefined)")
"> 100 µM"
>>> measured_value("Cc1nn2c(=O)c([N+](=O)[O-])c(/C=C/c3ccco3)nc2s1")
"63.7 µM"
>>> measured_value("Cc1cc(=O)oc2cc(SC(=O)N(C)C)ccc12")
"> 100 µM"
>>> measured_value("CCOC(=O)CCC(NC(=O)OCc1ccccc1)C(=O)NC(CCC(=O)OCC)C(=O)NC(Cc1ccc([N+](=O)[O-])cc1)C(=O)NC(CCC(=O)OCC)C(=O)NC(CCC(=O)OCC)C(=O)OCC (centres undefined) (Cbz-E(OEt)E(OEt)[Phe(4-NO2)]E(OEt)E(OEt)-OEt; configuration not given here)")
"> 100 µM"
>>> measured_value("Sc1ccc2ccccc2c1CNCc1ccccc1")
"78.3 µM"
>>> measured_value("COC(=O)C(=O)C(C(=O)C1=NS(=O)(=O)c2cc(S(N)(=O)=O)c(Cl)cc2N1)c1nc2ccc(C(=O)c3ccccc3)cc2[nH]c1=O (centres undefined)")
"> 100 µM"
>>> measured_value("Cc1ccc2nc(N/N=C/c3ccc(C)s3)cc(C)c2c1")
"26.1 µM"
>>> measured_value("CCCOc1ccc(-c2nc(-c3ccc(N=Cc4ccc(N(CCOS(C)(=O)=O)CCOS(C)(=O)=O)cc4C)cc3)cs2)cc1")
"56.9 µM"
>>> measured_value("Cc1ccc(/C=N/Nc2nc3ccccc3s2)s1")
"> 100 µM"
>>> measured_value("CCc1n[nH]c(=O)n1N1C(=O)CCC1=O")
"> 100 µM"
>>> measured_value("C=CC(CBr)CCC(Br)C(C)(C)Br (centres undefined)")
"> 10 µM"
>>> measured_value("Cc1cccc(O)c1-c1nnc(CCCCCCCCc2nnc(-c3c(C)cccc3O)n2N)n1N")
"> 100 µM"
>>> measured_value("C#Cc1c(C)c(/C=C/C(C)=C/C=C/C(C)=C/C(=O)OC)n(C)c1C")
"> 100 µM"
>>> measured_value("CC(C)(C)N1C(=O)c2ccccc2C1(O)C(F)(F)F (centres undefined)")
"> 100 µM"
>>> measured_value("Cc1cc(C(=O)Nc2nc3cccc(Cl)c3n2[C@@H]2CCCCN(C(=O)/C=C/CN(C)C)C2)ccn1")
"18.7 µM"
>>> measured_value("O=c1c(-c2ccccc2)c2oc(c1-c1ccccc1)CS(=O)(=O)CCC2")
"> 100 µM"
>>> measured_value("C[C@H]1CC[C@H]([C@@H](C)[C@H]2[C@@H](O)C[C@H]3[C@@H]4CC[C@H]5C[C@@H](O)CC[C@]5(C)[C@H]4CC[C@]23C)NC1")
"32.5 µM"
>>> measured_value("Cc1cc(N)ccc1N=Nc1ccc(S(=O)(=O)CCOS(=O)(=O)O)cc1")
"> 53 µM"
>>> measured_value("Cc1ccc(-n2c3nc(=O)n(C)c(=O)c-3nc3ccccc32)cc1")
"38.4 µM"
